Entries and their inhibition at 10 µM
target: human B1R receptor (CHO K1 cells stably transfected with the human B1R gene) (Homo sapiens, UniProt P46663); construct: expressed in transfected cells; host or cells: CHO K1 cells (Chinese hamster ovary), stably transfected; assay: Functional study on the bradykinin receptor 1 (B1R), Ca2+ fluorescence (Fluo-4) FLIPR/Novostar assay, hB1R cells; assay type: cell-based; conditions: CHO-K1, read-out: % inhibition (human B1R) at 10 μM
Sequence (P46663 whole entry): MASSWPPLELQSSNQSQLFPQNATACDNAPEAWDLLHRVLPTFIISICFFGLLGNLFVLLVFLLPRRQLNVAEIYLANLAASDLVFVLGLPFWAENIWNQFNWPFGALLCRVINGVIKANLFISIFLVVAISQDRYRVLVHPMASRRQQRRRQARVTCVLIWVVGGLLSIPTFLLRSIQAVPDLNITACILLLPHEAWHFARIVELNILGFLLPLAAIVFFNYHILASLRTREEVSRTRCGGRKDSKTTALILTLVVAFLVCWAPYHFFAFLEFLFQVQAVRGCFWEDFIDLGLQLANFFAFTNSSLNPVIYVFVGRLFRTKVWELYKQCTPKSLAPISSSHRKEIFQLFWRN

Known results for compounds:
>  <Item smiles>
Cc1cc(N2CCC(N(C)C(=O)c3ccc4c(c3)[C@H](N(C)C(=O)c3cc(F)ccc3Cl)CC4)CC2)nc(C)n1

>  <inhibition at 10 µM>
99%

$$$$
>  <Item smiles>
CN(C(=O)c1ccc2c(c1)[C@H](NC(=O)c1cccnc1C(F)(F)F)CC2)C1CCN(c2ccncc2)CC1

>  <inhibition at 10 µM>
100%

$$$$
>  <Item smiles>
CN(C(=O)c1ccc2c(c1)[C@H](NC(=O)c1ccccc1Cl)CC2)C1CCN(c2ncnc3ccccc23)CC1

>  <inhibition at 10 µM>
96%

$$$$
>  <Item smiles>
CCN(C(=O)c1cc(F)ccc1Cl)[C@@H]1CCc2ccc(C(=O)N(C)C3CCN(c4ccncc4)CC3)cc21

>  <inhibition at 10 µM>
99%

$$$$

Task item: Consider the compound "Cc1cc(N2CCC(N(C)C(=O)c3ccc4c(c3)[C@H](NC(=O)c3cc(C)on3)CC4)CC2)ccn1" and give its measured inhibition at 10 µM.
Reply: 100%

Task item: Can you handle "Cc1nccc(N2CCC(N(C)C(=O)c3ccc4c(c3)[C@H](NC(=O)c3ccccc3Cl)CC4)CC2)n1" next?
Reply: 100%

Task item: Can you handle "CN(C(=O)c1ccc2c(c1)[C@H](NC(=O)c1cncnc1)CC2)C1CCN(c2ccncc2)CC1" next?
Reply: 100%

Task item: Can you handle "CN(C(=O)c1ccc2c(c1)[C@H](NC(=O)c1ccc(F)cc1)CC2)C1CCN(c2ccncc2)CC1" next?
Reply: 100%

Task item: Can you handle "Cc1cc(N2CCC(N(C)C(=O)c3ccc4c(c3)[C@H](NC(=O)C3CCOCC3)CC4)CC2)ccn1" next?
Reply: 96%

Task item: Can you handle "Cc1cc(N2CC(N(C)C(=O)c3ccc4c(c3)[C@H](N3Cc5cccc(Cl)c5C3=O)CC4)C2)ccn1" next?
Reply: 99%

Task item: Can you handle "COc1cc(C(=O)N[C@@H]2CCc3ccc(C(=O)N(C)C4CCN(c5ccnc(C)c5)CC4)cc32)on1" next?
Reply: 100%

Task item: Can you handle "Cc1cc(N2CCC(CCNC(=O)c3ccc4c(c3)[C@H](NC(=O)c3ccccc3Cl)CC4)CC2)nc(C)n1" next?
Reply: 95%

Task item: Can you handle "Cc1cc(N2CCC(N(C)C(=O)c3cc(F)c4c(c3)[C@H](NC(=O)c3ccccc3Cl)CCO4)CC2)nc(C)n1" next?
Reply: 95%

Task item: Can you handle "CN(C(=O)c1ccc2c(c1)[C@H](NC(=O)Cc1ccccc1)CC2)C1CCN(c2ccncc2)CC1" next?
Reply: 100%

Task item: Can you handle "CN(C(=O)c1ccc2c(c1)[C@H](NC(=O)C1(c3ccccc3F)CC1)CC2)C1CCN(c2ccncc2)CC1" next?
Reply: 100%

###

Entries and their inhibition at 10 µM
target: human B1R receptor (CHO K1 cells stably transfected with the human B1R gene) (Homo sapiens, UniProt P46663); construct: expressed in transfected cells; host or cells: CHO K1 cells (Chinese hamster ovary), stably transfected; assay: Functional study on the bradykinin receptor 1 (B1R), Ca2+ fluorescence (Fluo-4) FLIPR/Novostar assay, hB1R cells; assay type: cell-based; details: CHO-K1, read-out: % inhibition (human B1R) at 10 μM
Reply numerically in %, unit not repeated.

Known results for compounds:
>  <Compound>
CN(C(=O)c1ccc2c(c1)[C@H](NC(=O)c1ccccc1Cl)CC2)C1CCN(c2cc[nH]c(=O)c2)CC1

>  <Experimental endpoint>
inhibition at 10 µM

>  <Measure unit>
%

>  <Reported result>
79

$$$$
>  <Compound>
Cc1cc(N2CCC(N(C)C(=O)c3ccc4c(c3)[C@H](N(C)C(=O)c3cccc(F)c3Cl)CC4)CC2)nc(C)n1

>  <Experimental endpoint>
inhibition at 10 µM

>  <Measure unit>
%

>  <Reported result>
100

$$$$
>  <Compound>
Cc1cc(N2CCC(N(C)C(=O)c3ccc4c(c3)[C@H](NC(=O)C(C)(C)F)CC4)CC2)ccn1

>  <Experimental endpoint>
inhibition at 10 µM

>  <Measure unit>
%

>  <Reported result>
94

$$$$
>  <Compound>
CN(C(=O)c1cc(F)c2c(c1)[C@H](NC(=O)c1ccccc1Cl)CCO2)C1CCN(c2ccncc2)CC1

>  <Experimental endpoint>
inhibition at 10 µM

>  <Measure unit>
%

>  <Reported result>
100

$$$$
>  <Compound>
CN(C(=O)c1ccc2c(c1)[C@H](NC(=O)c1ccccc1Cl)CC2)C1CCC(N2CCc3cnccc3C2)CC1 (stereo partly drawn)

>  <Experimental endpoint>
inhibition at 10 µM

>  <Measure unit>
%

>  <Reported result>
81

$$$$
>  <Compound>
COc1cc(C(=O)N[C@@H]2CCc3ccc(C(=O)N(C)C4CCN(c5cc(C)nc(C)n5)CC4)cc32)on1

>  <Experimental endpoint>
inhibition at 10 µM

>  <Measure unit>
%

>  <Reported result>
98

$$$$
>  <Compound>
CN(C(=O)c1ccc2c(c1)[C@H](NC(=O)C1CCOc3ccccc31)CC2)C1CCN(c2ccncc2)CC1 (stereo partly drawn)

>  <Experimental endpoint>
inhibition at 10 µM

>  <Measure unit>
%

>  <Reported result>
100

$$$$
>  <Compound>
Cc1cc(N2CCC(N(C)C(=O)c3ccc4c(c3)[C@H](NC(=O)c3cc(F)ccc3Cl)CC4)CC2)nc(C)n1

>  <Experimental endpoint>
inhibition at 10 µM

>  <Measure unit>
%

>  <Reported result>
99

$$$$

Now take the following compound into account.
Task item: Consider the compound "CN(C(=O)c1ccc2c(c1)[C@H](NC(=O)c1c(F)cccc1Cl)CC2)C1CCN(c2ccncc2)CC1" and give its measured inhibition at 10 µM.
Reply: 100

All values here come from patent US8680159B2.
